Every entry's value here was drawn from ChEMBL document CHEMBL3886696.

Molecular target: Prostaglandin E2 receptor EP4 subtype (Homo sapiens)
Assay: Radioligand Binding: HEK-293 cells stably expressing the human or feline FP receptor, or EP1, EP2, or EP4 receptors were washed with TME buffer, scraped from the bottom of the flasks, and homogenized for 30 sec using a Brinkman PT 10/35 polytron. TME buffer was added to achieve a final 40 ml volume in the centrifuge tubes (the composition of TME is 100 mM TRIS base, 20 mM MgCl2, 2M EDTA; 10N HCl is added to achieve a pH of 7.4). The cell homogenate was centrifuged at 19000 r.p.m. for 20 min at 4 °C. using a Beckman Ti-60 rotor. The resultant pellet was resuspended in TME buffer to give a final 1 mg/ml protein concentration, as determined by Biorad assay. Radioligand binding competition assays vs. [3H-]17-phenyl PGF2a (5 nM) were performed in a 100 μl volume for 60 min. Binding reactions were started by adding plasma membrane fraction. The reaction was terminated by the addition of 4 ml ice-cold TRIS-HCl buffer and rapid filtration through glass fiber GF/B filters using a Brandel cell harvester. The filters were washed 3 times with ice-cold buffer and oven dried for one hour. [3H−] PGE2 (specific activity 180 Ci mmol) was used as the radioligand for EP receptors. [3H] 17-phenyl PGF2a was employed for FP receptor binding studies. Binding studies employing EP1, EP2, EP4 and FP receptors were performed in duplicate in at least three separate experiments. A 200 μl assay volume was used. Incubations were for 60 min at 25 °C. and were terminated by the addition of 4 ml of ice-cold 50 mM TRIS-HCl, followed by rapid filtration through Whatman GF/B filters and three additional 4 ml washes in a cell harvester (Brandel). Competition studies were performed using a final concentration of 5 nM [3H]-PGE2, or 5 nM [3H] 17-phenyl PGF2a and non-specific binding determined with 10^−5M of unlabeled PGE2, or 17-phenyl PGF2a, according to receptor subtype studied.
Type: cell-free
property: EC50 (µM)
Only the number, expressed in µM, is required.

Reported EC50 of O=C(O)c1ccc(CCCN2[C@@H](/C=C/C(O)Cc3cccc(OC(F)(F)F)c3)CCS2(=O)=O)s1 (stereo partly specified) : 0.053

* * *

Target: Prostaglandin E2 receptor EP4 subtype (Homo sapiens, UniProt P35408)
Sequence (P35408 whole entry): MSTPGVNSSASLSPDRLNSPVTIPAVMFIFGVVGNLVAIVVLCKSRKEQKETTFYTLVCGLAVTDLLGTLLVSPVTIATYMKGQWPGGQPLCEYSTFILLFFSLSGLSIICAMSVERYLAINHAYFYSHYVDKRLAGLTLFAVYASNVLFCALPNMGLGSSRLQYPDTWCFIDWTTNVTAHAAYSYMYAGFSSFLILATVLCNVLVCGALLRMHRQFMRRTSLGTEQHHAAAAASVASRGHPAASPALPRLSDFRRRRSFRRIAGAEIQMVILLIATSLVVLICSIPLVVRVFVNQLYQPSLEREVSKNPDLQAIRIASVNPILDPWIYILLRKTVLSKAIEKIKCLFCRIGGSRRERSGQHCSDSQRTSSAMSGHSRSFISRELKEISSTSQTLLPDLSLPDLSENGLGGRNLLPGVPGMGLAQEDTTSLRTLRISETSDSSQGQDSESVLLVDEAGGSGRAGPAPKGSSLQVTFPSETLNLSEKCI
Assay: cAMP Assay: EP4 receptors couple to Gs and mediate elevations in cAMP concentration, although they do participate in other pathways as well. There are some redundancies in function between EP2 and EP4 receptors. For example, both receptors induce PGE2-mediated RANKL through cAMP.
Type: functional
property: pEC50
Please treat pEC50 as minus the base-10 logarithm of the molar concentration.

Reported pEC50 of O=C(O)c1ccc(CCCN2[C@@H](/C=C/C(O)Cc3cccc(OC(F)(F)F)c3)CCS2(=O)=O)s1 (stereo partly specified) : 9.00
